- Test system: Escherichia coli TOP10
- Assay Explanation: shrunken log2 fold change of peptide-encoding DNA abundance (4.5 h post-induction vs induction); higher = less antimicrobial activity (less host growth inhibition)
- Settings: time post-induction: 4.5 h; library: site-saturation at positions 5, 18, 19, 20
Categorized via shrunken log2 fold change: range A = under -0.07, range B = from -0.07 up to 0.3, range C = 0.3 and over

Input line: State the class of the sequence shown: `RRIRKRPPRLPRPRPRPEHWPRP`
Output line: range C

Input line: State the class of the sequence shown: `RRIRRRPPRLPRPRPRPHPQPRP`
Output line: range B

Input line: State the class of the sequence shown: `RRIRRRPPRLPRPRPRPSGWPRP`
Output line: range C

Input line: State the class of the sequence shown: `RRIRLRPPRLPRPRPRPVMVPRP`
Output line: range A

Input line: State the class of the sequence shown: `RRIRPRPPRLPRPRPRPSRNPRP`
Output line: range B

Input line: State the class of the sequence shown: `RRIRQRPPRLPRPRPRPAEGPRP`
Output line: range B

Input line: State the class of the sequence shown: `RRIRHRPPRLPRPRPRPCPVPRP`
Output line: range B

Input line: State the class of the sequence shown: `RRIRWRPPRLPRPRPRPMFRPRP`
Output line: range A

Input line: State the class of the sequence shown: `RRIRQRPPRLPRPRPRPWQYPRP`
Output line: range A

Input line: State the class of the sequence shown: `RRIRTRPPRLPRPRPRPVQTPRP`
Output line: range B

Input line: State the class of the sequence shown: `RRIRDRPPRLPRPRPRPLSIPRP`
Output line: range B

Input line: State the class of the sequence shown: `RRIRDRPPRLPRPRPRPGPPPRP`
Output line: range C

Input line: State the class of the sequence shown: `RRIRLRPPRLPRPRPRPPPFPRP`
Output line: range C

Input line: State the class of the sequence shown: `RRIRWRPPRLPRPRPRPPIGPRP`
Output line: range C

###

- Test system: Escherichia coli TOP10
- Assay Explanation: shrunken log2 fold change of peptide-encoding DNA abundance (4.5 h post-induction vs induction); higher = less antimicrobial activity (less host growth inhibition)
- Settings: time post-induction: 4.5 h; library: site-saturation at positions 5, 18, 19, 20
Could you please report measured shrunken log2 fold change for the items listed next?
Kindly provide the number alone.

Input line: Need shrunken log2 fold change, item `RRIRERPPRLPRPRPRPHSLPRP`
Output line: -0.0176

Input line: Need shrunken log2 fold change, item `RRIRRRPPRLPRPRPRPADRPRP`
Output line: 0.00311

Input line: Need shrunken log2 fold change, item `RRIRFRPPRLPRPRPRPDKKPRP`
Output line: -0.0461

Input line: Need shrunken log2 fold change, item `RRIRERPPRLPRPRPRPGQSPRP`
Output line: 0.0977

Input line: Need shrunken log2 fold change, item `RRIRGRPPRLPRPRPRPFEPPRP`
Output line: 0.267

Input line: Need shrunken log2 fold change, item `RRIRWRPPRLPRPRPRPVRWPRP`
Output line: 0.874

Input line: Need shrunken log2 fold change, item `RRIRWRPPRLPRPRPRPAKNPRP`
Output line: 0.263

Input line: Need shrunken log2 fold change, item `RRIRLRPPRLPRPRPRPASRPRP`
Output line: 0.00832

###

- System: Escherichia coli TOP10;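 note: peptides expressed intracellularly from a pBAD plasmid library in pooled LB shake-flask culture, induced with 0.3% L-arabinose, DNA abundance read by NGS, three biological replicates, DESeq2 with apeglm shrinkage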
- Assay Explanation: shrunken log2 fold change of peptide-encoding DNA abundance (4.5 h post-induction vs induction); higher = less antimicrobial activity (less host growth inhibition)
- Settings: time post-induction: 4.5 h; library: site-saturation at positions 5, 18, 19, 20
Could you please report measured shrunken log2 fold change for the items listed next?
Kindly provide the number alone.

Input line: Need shrunken log2 fold change, item `RRIRRRPPRLPRPRPRPKHRPRP`
Output line: 0.376

Input line: Need shrunken log2 fold change, item `RRIRLRPPRLPRPRPRPVKVPRP`
Output line: -0.0103

Input line: Need shrunken log2 fold change, item `RRIRGRPPRLPRPRPRPYGKPRP`
Output line: -0.124

Input line: Need shrunken log2 fold change, item `RRIRLRPPRLPRPRPRPPTGPRP`
Output line: 0.146

Input line: Need shrunken log2 fold change, item `RRIRCRPPRLPRPRPRPMEKPRP`
Output line: 0.0833

Input line: Need shrunken log2 fold change, item `RRIRCRPPRLPRPRPRPDSMPRP`
Output line: -0.0886

Input line: Need shrunken log2 fold change, item `RRIRHRPPRLPRPRPRPCLTPRP`
Output line: -0.0273

Input line: Need shrunken log2 fold change, item `RRIRLRPPRLPRPRPRPELIPRP`
Output line: -0.0413

Input line: Need shrunken log2 fold change, item `RRIRHRPPRLPRPRPRPIIVPRP`
Output line: -0.0935

Input line: Need shrunken log2 fold change, item `RRIRERPPRLPRPRPRPMHVPRP`
Output line: 0.05

Input line: Need shrunken log2 fold change, item `RRIRWRPPRLPRPRPRPLKQPRP`
Output line: 0.206

Input line: Need shrunken log2 fold change, item `RRIRRRPPRLPRPRPRPIPGPRP`
Output line: 0.292

Input line: Need shrunken log2 fold change, item `RRIRIRPPRLPRPRPRPHSQPRP`
Output line: -0.824

Input line: Need shrunken log2 fold change, item `RRIRMRPPRLPRPRPRPPNLPRP`
Output line: 0.0707

Input line: Need shrunken log2 fold change, item `RRIRTRPPRLPRPRPRPAVWPRP`
Output line: 0.556
